# tested.target: KRas (Homo sapiens, UniProt P01116, G12C)
# Sequence (P01116 1-188 isoform P01116-2 G12C): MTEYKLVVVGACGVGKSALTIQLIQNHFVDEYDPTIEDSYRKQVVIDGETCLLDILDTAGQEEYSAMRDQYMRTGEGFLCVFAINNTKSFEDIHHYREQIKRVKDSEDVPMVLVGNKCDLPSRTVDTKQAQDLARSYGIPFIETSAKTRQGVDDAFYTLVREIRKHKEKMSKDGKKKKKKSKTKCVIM
# experiment.notes: KRas degradation in NCI-H2030 cells by Western blot, normalized to GAPDH (data of Table 14)
# Type: cell-based
# Set-up: host or cells: NCI-H2030
# details: NCI-H2030
property: Dmax

1. COc1cc(-c2scnc2C)ccc1[C@H](C)NC(=O)[C@@H]1C[C@@H](O)CN1C(=O)[C@@H](c1cc(OCCOCCOCCOCCOCCN(C)C(=O)CCNc2nc(N3CCN(C(C)=O)CC3)c3cc(Cl)c(-c4cc(O)cc5ccccc45)c(F)c3n2)no1)C(C)C = ≤ 35%

Now for the compound whose Dmax we want.
[Q] Provide Dmax value for the following compound: C=CC(=O)N1CCN(c2nc(NCCC(=O)N(C)CCOCCOCCOCCOc3cc(-c4scnc4C)ccc3CNC(=O)[C@@H]3C[C@@H](O)CN3C(=O)[C@H](c3cc(C)no3)C(C)C)nc3c(F)c(-c4cc(O)cc5ccccc45)c(Cl)cc23)CC1
[A] ≤ 35%

----------
# tested.target: KRas (Homo sapiens, UniProt P01116, G12C)
# experiment.notes: KRas degradation in SW1573 cells by Western blot, normalized to GAPDH (data of Table 14)
# Type: cell-based
# details: SW1573 cells
property: Dmax

1) C=CC(=O)N1CCN(c2nc(OC[C@@H]3C[C@@H](OCCOCCNc4cccc5c4C(=O)N(C4CCC(=O)NC4=O)C5=O)CN3C)nc3c2CCN(c2cccc4ccccc24)C3)C[C@@H]1CC#N (stereo partly drawn) [compound 516] = 35 to 70%

[Q] Provide Dmax value for the following compound: C=CC(=O)N1CCN(c2nc(OC[C@@H]3C[C@@H](OCCOCCOCCOc4ccc5c(c4)C(=O)N(C4CCC(=O)NC4=O)C5=O)CN3C)nc3c2CCN(c2cccc4ccccc24)C3)C[C@@H]1CC#N (stereo partly drawn) [compound 504]
[A] ≥ 70%

[Q] Provide Dmax value for the following compound: C=CC(=O)N1CCN(c2nc(OC[C@@H]3C[C@@H](OCCOCCOCCOCCNc4cccc5c4C(=O)N(C4CCC(=O)NC4=O)C5=O)CN3C)nc3c2CCN(c2cccc4ccccc24)C3)C[C@@H]1CC#N (stereo partly drawn) [compound 518]
[A] ≥ 70%

----------
# tested.target: KRas (Homo sapiens, UniProt P01116, G12C)
# experiment.notes: KRas degradation in SW1573 cells by Western blot, normalized to GAPDH (data of Table 14)
# Assay type: cell-based
# details: SW1573 cells
Measured Dmax values are reported for all entries that follow.

[Q] Fill in: Dmax on KRas (Homo sapiens, UniProt P01116, G12C), entry C=CC(=O)N1CCN(c2nc(O[C@H](C)CN3CCC(CN4CCN(CC(=O)N[C@H](C(=O)N5C[C@H](O)C[C@H]5C(=O)N[C@@H](C)c5ccc(-c6scnc6C)cc5)C(C)(C)C)CC4)CC3)nc3c(F)c(-c4cc(O)cc5ccccc45)c(Cl)cc23)CC1
[A] 35 to 70%

[Q] Fill in: Dmax on KRas (Homo sapiens, UniProt P01116, G12C), entry C=CC(=O)N1CCN(c2nc(O[C@H](C)CN3CCC(OCCOCCOCCOCC(=O)N[C@H](C(=O)N4C[C@H](O)C[C@H]4C(=O)N[C@@H](C)c4ccc(-c5scnc5C)cc4)C(C)(C)C)CC3)nc3c(F)c(-c4cc(O)cc5ccccc45)c(Cl)cc23)CC1
[A] ≤ 35%

[Q] Fill in: Dmax on KRas (Homo sapiens, UniProt P01116, G12C), entry C=CC(=O)N1CCN(c2nc(O[C@H](C)CN3CCC(OCCOCCOCCOCCOCCOCC(=O)N[C@H](C(=O)N4C[C@H](O)C[C@H]4C(=O)N[C@@H](C)c4ccc(-c5scnc5C)cc4)C(C)(C)C)CC3)nc3c(F)c(-c4cc(O)cc5ccccc45)c(Cl)cc23)CC1
[A] ≤ 35%

[Q] Fill in: Dmax on KRas (Homo sapiens, UniProt P01116, G12C), entry C=CC(=O)N1CCN(c2nc(OC[C@@H]3C[C@@H](OCCOCCOCCOCCOCCNc4cccc5c4C(=O)N(C4CCC(=O)NC4=O)C5=O)CN3C)nc3c2CCN(c2cccc4ccccc24)C3)C[C@@H]1CC#N (some centres unmarked)
[A] ≥ 70%

[Q] Fill in: Dmax on KRas (Homo sapiens, UniProt P01116, G12C), entry C=CC(=O)N1CCN(c2nc(O[C@H](C)CN3CCC(OCCOCC(=O)N[C@H](C(=O)N4C[C@H](O)C[C@H]4C(=O)N[C@@H](C)c4ccc(-c5scnc5C)cc4)C(C)(C)C)CC3)nc3c(F)c(-c4cc(O)cc5ccccc45)c(Cl)cc23)CC1
[A] 35 to 70%

[Q] Fill in: Dmax on KRas (Homo sapiens, UniProt P01116, G12C), entry C=CC(=O)N1CCN(c2nc(O[C@H](C)CN(C)CCOCCOCCOCCOCC(=O)N[C@H](C(=O)N3C[C@H](O)C[C@H]3C(=O)N[C@@H](C)c3ccc(-c4scnc4C)cc3)C(C)(C)C)nc3c(F)c(-c4cc(O)cc5ccccc45)c(Cl)cc23)CC1
[A] ≤ 35%

[Q] Fill in: Dmax on KRas (Homo sapiens, UniProt P01116, G12C), entry C=CC(=O)N1CCN(c2nc(O[C@H](C)CN3CCC(OCCOCCOCCOCCOCC(=O)N[C@H](C(=O)N4C[C@H](O)C[C@H]4C(=O)N[C@@H](C)c4ccc(-c5scnc5C)cc4)C(C)(C)C)CC3)nc3c(F)c(-c4cc(O)cc5ccccc45)c(Cl)cc23)CC1
[A] ≤ 35%

[Q] Fill in: Dmax on KRas (Homo sapiens, UniProt P01116, G12C), entry C=CC(=O)N1CCN(c2nc(OC[C@@H]3C[C@@H](OCCOCCOCCOCCOc4ccc5c(c4)C(=O)N(C4CCC(=O)NC4=O)C5=O)CN3C)nc3c2CCN(c2cccc4ccccc24)C3)C[C@@H]1CC#N (some centres unmarked)
[A] 35 to 70%
